Reported values of MIC for individual entries
test system: RFP-resistant M. tuberculosis; experiment: microbe, parasite or virus in culture; format: cell-based, Mycobacterium tuberculosis; details: Mycobacterium tuberculosis, RFP-resistant M. tuberculosis No. 51; Table 8 (series 2)
Record the value in µg/mL, omitting the unit from your answer.

compound="COc1c(C2CNC3(CCC3)CN2)c(F)cc2c(=O)c(C(=O)O)cn([C@@H]3C[C@@H]3F)c12 (some centres unmarked)" target_entity="RFP-resistant M. tuberculosis" readout_value=6.25
compound=COc1c(N2CCNC3(CC3)C2)c(F)cc2c(=O)c(C(=O)O)cn([C@@H]3C[C@@H]3F)c12 target_entity="RFP-resistant M. tuberculosis" readout_value=1.56
compound="COc1c(N2CCNC(CF)C2)c(F)cc2c(=O)c(C(=O)O)cn([C@@H]3C[C@@H]3F)c12 (some centres unmarked)" target_entity="RFP-resistant M. tuberculosis" readout_value=0.78
compound=COc1c(N2CCNC(CF)(CF)C2)c(F)cc2c(=O)c(C(=O)O)cn([C@@H]3C[C@@H]3F)c12 target_entity="RFP-resistant M. tuberculosis" readout_value=0.78
compound="COc1c(N2CCN3CCC2C3)c(F)cc2c(=O)c(C(=O)O)cn([C@@H]3C[C@@H]3F)c12 (some centres unmarked)" target_entity="RFP-resistant M. tuberculosis" readout_value=0.78
compound="COc1c(N2CCNC(C3CC3)C2)c(F)cc2c(=O)c(C(=O)O)cn([C@@H]3C[C@@H]3F)c12 (some centres unmarked)" target_entity="RFP-resistant M. tuberculosis" readout_value=1.56
compound=COc1c(N2C[C@@H](C)N[C@@H](C)C2)c(F)cc2c(=O)c(C(=O)O)cn([C@@H]3C[C@@H]3F)c12 target_entity="RFP-resistant M. tuberculosis" readout_value=0.5

Now take the following compound into account.
Given the compound COCC1CN(c2c(F)cc3c(=O)c(C(=O)O)cn([C@@H]4C[C@@H]4F)c3c2OC)CCN1 (some centres unmarked) and test system RFP-resistant M. tuberculosis, the measured MIC is 0.78

----------
Reported values of MIC for individual entries
test system: RFP-resistant M. tuberculosis; test: microbe, parasite or virus in culture; format: cell-based, Mycobacterium tuberculosis; settings: Mycobacterium tuberculosis, RFP-resistant M. tuberculosis No. 97; Table 8 (series 2)
Record the value in µg/mL, omitting the unit from your answer.

The cases that follow already have their MIC on record.
compound="COc1c(N2CCN3CCC2C3)c(F)cc2c(=O)c(C(=O)O)cn([C@@H]3C[C@@H]3F)c12 (stereo partly shown) [Compd. 28]" measured_attribute=MIC readout_value=1.56
compound="COc1c(N2CCNC(CF)(CF)C2)c(F)cc2c(=O)c(C(=O)O)cn([C@@H]3C[C@@H]3F)c12 [Compd. 20]" measured_attribute=MIC readout_value=1.56
compound="COc1c(N2CCNC(C3CC3)C2)c(F)cc2c(=O)c(C(=O)O)cn([C@@H]3C[C@@H]3F)c12 (stereo partly shown) [Compd. 24]" measured_attribute=MIC readout_value=3.13

Now take the following compound into account.
Given the compound COc1c(N2C[C@@H](C)N[C@@H](C)C2)c(F)cc2c(=O)c(C(=O)O)cn([C@@H]3C[C@@H]3F)c12 [Compd. 16] and test system RFP-resistant M. tuberculosis, the measured MIC is 1
